Concentration (μM) of analyte PEA, 60 min reference
# assayComment: in vitro
# recordedConditions: male, Sprague-Dawley, rat, 60 min, 1 μM
parameter: Concentration (μM) of analyte PEA, 60 min (µM)

>  <molecule>
CCCCCCCCCCCCCCCC(=O)NCCOC(=O)CCC

>  <unitName>
µM

>  <dataValue>
0.52

$$$$
>  <molecule>
CCCCC/C=C\C/C=C\CCCCCCCC(=O)OCCNC(=O)CCCCCCCCCCCCCCC

>  <unitName>
µM

>  <dataValue>
0.11

$$$$
>  <molecule>
CC/C=C\C/C=C\C/C=C\C/C=C\C/C=C\CCCC(=O)OCCNC(=O)CCCCCCCCCCCCCCC

>  <unitName>
µM

>  <dataValue>
0.18

$$$$
>  <molecule>
CCCCCCCCCCCCCCCC(=O)NCCOC(=O)CCC(=O)OC[C@H]1O[C@@](CO)(O[C@H]2O[C@H](CO)[C@@H](O)[C@H](O)[C@H]2O)[C@@H](O)[C@@H]1O

>  <unitName>
µM

>  <dataValue>
0.60

$$$$
>  <molecule>
CCCCCCCCCCCCCCCC(=O)NCCOC(=O)CCC(=O)OCC(O)CO (stereo not shown)

>  <unitName>
µM

>  <dataValue>
0.39

$$$$
>  <molecule>
CCCCCCCCCCCCCCCC(=O)NCCOC(=O)CCC(=O)OCC(COC(=O)CCC)OC(=O)CCC (stereo not shown)

>  <unitName>
µM

>  <dataValue>
0.38

$$$$
>  <molecule>
CCCCCCCCCCCCCCCC(=O)NCCOC(=O)CCC(=O)OCC(COC(=O)CCCCCCC)OC(=O)CCCCCCC (stereo not shown) [Compound I-3, PEA-Succinate-Glycerol-Di-Caprylic]

>  <unitName>
µM

>  <dataValue>
0.073

$$$$

* * *

# assayComment: Liver microsomal stability, rat
# recordedConditions: male, Sprague-Dawley, microsomes, Half-life, control compound, Example 4 control run

>  <compound>
C[C@]12CC[C@H]3[C@@H](CCC4=CC(=O)CC[C@@]43C)[C@@H]1CC[C@@H]2O [Testosterone, testosterone, reference compound]

>  <half-life [min]>
1.4

$$$$

* * *

# assayComment: Intestinal S9 fraction stability, rat
# recordedConditions: male, Sprague-Dawley, rat, s9, CLint, Rat intestinal S9 fraction, control compound
parameter: microsomal CLint

>  <compound>
C[C@]12CC[C@H]3[C@@H](CCC4=CC(=O)CC[C@@]43C)[C@@H]1CC[C@@H]2O [Testosterone, testosterone, reference compound]

>  <dataValue>
< 11.6 µL/min/mg

$$$$

* * *

# assayComment: in vitro
# recordedConditions: both, human, microsomes, 10 min, 1 μM
Assign yes to entries whose % Remaining of Initial, 10 min meets or exceeds 80%; assign no to the rest.

>  <molecule>
CCCCCCCCCCCCCCCC(=O)NCCOC(=O)CCC(=O)OC[C@H]1O[C@@](CO)(O[C@H]2O[C@H](CO)[C@@H](O)[C@H](O)[C@H]2O)[C@@H](O)[C@@H]1O

>  <qualitativeLabel>
no

$$$$
>  <molecule>
CCCCCCCCCCCCCCCC(=O)NCCOC(=O)CCC(=O)OCC(COC(=O)CCCCCCC)OC(=O)CCCCCCC (stereo not shown) [Compound I-3, PEA-Succinate-Glycerol-Di-Caprylic]

>  <qualitativeLabel>
yes

$$$$
>  <molecule>
CCCCCCCCCCCCCCCC(=O)NCCOC(=O)CCC(=O)OCC(O)CO (stereo not shown)

>  <qualitativeLabel>
no

$$$$
>  <molecule>
CCCCCCCCCCCCCCCC(=O)NCCOC(=O)CCC

>  <qualitativeLabel>
no

$$$$
>  <molecule>
CC/C=C\C/C=C\C/C=C\C/C=C\C/C=C\CCCC(=O)OCCNC(=O)CCCCCCCCCCCCCCC

>  <qualitativeLabel>
yes

$$$$
>  <molecule>
CCCCCCCCCCCCCCCC(=O)NCCOC(=O)CCC(=O)OCC(COC(=O)CCC)OC(=O)CCC (stereo not shown)

>  <qualitativeLabel>
no

$$$$
